SYSTEM_UNDER_TEST: T1, CD28 endogenously expressed on Jurkat/IL2 reporter cells (human, UniProt P10747 19-220)
T1 construct: also called Jurkats (CD28)
TEST_DETAILS: flow cytometry, Jurkat cells (CD28); MFI relative to WT CD80 ECD-Fc
Measured Fold change to WT CD80 values are reported for all entries that follow.
Respond with the bare value in fold.

>  <BINDER>
variant CD80 IgV-Fc E35D/D46V/M47L/V68M/L85Q (Fc fusion, not shown: small tags and cut ends; a dimerising Fc or GST) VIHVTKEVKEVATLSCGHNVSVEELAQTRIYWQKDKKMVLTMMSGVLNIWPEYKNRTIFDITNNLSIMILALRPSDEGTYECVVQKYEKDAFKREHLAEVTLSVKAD

>  <Fold change to WT CD80 (fold)>
0.7

$$$$
>  <BINDER>
variant CD80 IgV-Fc K89N (Fc fusion, not shown: small tags and cut ends; a dimerising Fc or GST) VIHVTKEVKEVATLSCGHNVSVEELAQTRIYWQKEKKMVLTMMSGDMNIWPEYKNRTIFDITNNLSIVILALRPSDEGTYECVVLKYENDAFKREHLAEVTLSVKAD

>  <Fold change to WT CD80 (fold)>
0.1

$$$$
>  <BINDER>
variant CD80 IgV-Fc D46V/V68M (Fc fusion, not shown: small tags and cut ends; a dimerising Fc or GST) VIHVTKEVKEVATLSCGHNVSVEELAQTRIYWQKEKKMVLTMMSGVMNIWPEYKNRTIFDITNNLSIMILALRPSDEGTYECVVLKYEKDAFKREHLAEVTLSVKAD

>  <Fold change to WT CD80 (fold)>
0.8

$$$$
>  <BINDER>
variant CD80 IgV-Fc E35D/K89N (Fc fusion, not shown: small tags and cut ends; a dimerising Fc or GST) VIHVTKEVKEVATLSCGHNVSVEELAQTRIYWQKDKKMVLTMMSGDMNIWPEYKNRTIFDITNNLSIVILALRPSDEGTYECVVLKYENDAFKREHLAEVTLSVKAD

>  <Fold change to WT CD80 (fold)>
0.3

$$$$
>  <BINDER>
variant CD80 IgV-Fc M47L/V68M/L85Q (Fc fusion, not shown: small tags and cut ends; a dimerising Fc or GST) VIHVTKEVKEVATLSCGHNVSVEELAQTRIYWQKEKKMVLTMMSGDLNIWPEYKNRTIFDITNNLSIMILALRPSDEGTYECVVQKYEKDAFKREHLAEVTLSVKAD

>  <Fold change to WT CD80 (fold)>
0.1

$$$$

The recorded Fold change to WT CD80 for entry variant CD80 IgV-Fc E35D/V68M/L85Q (Fc fusion, not shown: small tags and cut ends; a dimerising Fc or GST) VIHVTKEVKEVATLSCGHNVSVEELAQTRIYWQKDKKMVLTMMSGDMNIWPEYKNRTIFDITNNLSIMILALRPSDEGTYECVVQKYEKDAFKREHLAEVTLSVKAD equals 0.1

The recorded Fold change to WT CD80 for entry variant CD80 IgV-Fc E35D/D46V/M47L/L85Q (Fc fusion, not shown: small tags and cut ends; a dimerising Fc or GST) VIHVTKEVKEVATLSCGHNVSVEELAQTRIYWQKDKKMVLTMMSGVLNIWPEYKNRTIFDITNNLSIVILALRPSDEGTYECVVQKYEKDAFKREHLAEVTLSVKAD equals 0.4

The recorded Fold change to WT CD80 for entry variant CD80 IgV-Fc M47V/V68M (Fc fusion, not shown: small tags and cut ends; a dimerising Fc or GST) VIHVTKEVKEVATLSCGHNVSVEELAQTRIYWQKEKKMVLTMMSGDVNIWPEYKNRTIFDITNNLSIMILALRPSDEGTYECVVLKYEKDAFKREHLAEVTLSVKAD equals 0.5
